Hi there, I'd appreciate the recorded pIC50 for every entry that follows.
# TESTED_ON: human V1a receptor (Homo sapiens, UniProt P37288)
# Sequence (P37288 whole entry): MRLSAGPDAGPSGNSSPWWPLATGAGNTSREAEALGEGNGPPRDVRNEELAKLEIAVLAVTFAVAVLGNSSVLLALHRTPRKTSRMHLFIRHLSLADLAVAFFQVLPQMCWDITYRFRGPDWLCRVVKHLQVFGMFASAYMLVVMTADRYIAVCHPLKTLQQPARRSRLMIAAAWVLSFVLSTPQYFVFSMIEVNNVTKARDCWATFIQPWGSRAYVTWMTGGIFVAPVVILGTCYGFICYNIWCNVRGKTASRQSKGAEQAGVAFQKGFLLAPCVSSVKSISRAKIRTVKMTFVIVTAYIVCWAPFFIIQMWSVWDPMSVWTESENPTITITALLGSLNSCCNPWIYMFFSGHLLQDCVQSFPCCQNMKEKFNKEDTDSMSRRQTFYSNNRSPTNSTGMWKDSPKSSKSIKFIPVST
# EXPERIMENT_NOTES: Cellular in vitro assay for determining vasopressin receptor activity, V1a receptor cell line (CHO, aequorin luminescence)
# STATED_CONDITIONS: CHO cell line transfected with human V1a receptor; [Arg]-vasopressin at EC50 concentration; read-out: IC50 hV1a
One number for each entry, as −log10 of the molar value.

Required: pIC50, one value per compound below.
1. Cc1nonc1CC(=O)Nc1ncccc1-n1cnc(Cn2nc(-c3ccc(Cl)cc3)n(C[C@H](O)C(F)(F)F)c2=O)n1
2. O=C(CC1CCCCC1)Nc1ncccc1-n1cnc(Cn2nc(-c3ccc(Cl)cc3)n(C[C@H](O)C(F)(F)F)c2=O)n1
3. Cc1nonc1C(=O)Nc1ncccc1-n1cnc(Cn2nc(-c3ccc(Cl)cc3)n(C[C@H](O)C(F)(F)F)c2=O)n1

**Result**
7.41
6.89
8.31

Required: pIC50, one value per compound below.
1. O=C(NC1CC1)c1ncccc1-n1cnc(Cn2nc(-c3ccc(Cl)cc3)n(C[C@@H](O)C(F)(F)F)c2=O)n1
2. O=C(Nc1ccncc1)c1ccccc1-n1cnc(Cn2nc(-c3ccc(Cl)cc3)n(C[C@H](O)C(F)(F)F)c2=O)n1
3. O=C1CN(C(=O)c2ncccc2-n2cnc(Cn3nc(-c4ccc(Cl)cc4)n(C[C@H](O)C(F)(F)F)c3=O)n2)CCN1

**Result**
1. 7.00
2. 8.99
3. 6.66

**Query** Param item = O=C(Nc1ccc(F)cc1)c1ccccc1-n1cnc(Cn2nc(-c3ccc(Cl)cc3)n(C[C@H](O)C(F)(F)F)c2=O)n1 ; retrieve measured pIC50.
**Result** 8.59

From: patent US11173151B2
